assay: Tmax in fed cynomolgus monkey at 03 mg/kg, po; type: ADME, organism-based, Macaca fascicularis; set-up: dose 3 mg/kg, route oral; conditions: in vivo, 3 mg/kg
ASSAY READOUT: Tmax (h)
Reply with just the number (in h).

Please report the measured Tmax for Cc1nc(C#Cc2ccnc(Cl)c2)c(C)n1-c1ccc(F)cc1 [BASIMGLURANT]
2

----------
assay: AUC (infinity) in fasted cynomolgus monkey at 0.3 mg/kg, po; type: ADME, organism-based, Macaca fascicularis; set-up: time infinity, dose 0.3 mg/kg, route oral; settings: plasma
ASSAY READOUT: AUC(0-inf)

Answer with the recorded AUC(0-inf) of Cc1nc(C#Cc2ccnc(Cl)c2)c(C)n1-c1ccc(F)cc1 [BASIMGLURANT] only.
852 ng·h/mL
